reported endpoint: melting point

In [3]: df
Out[3]:
        smiles_entry  reported_endpoint  recorded_result
0  C=CCNC1=NC(=O)CS1      melting point      90 to 91 °C

Batch request: melting point for each of the following molecules.
1. O=C1N=C(Nc2cccc3ccccc23)SC1=Cc1coc2ccc(Cl)cc2c1=O
2. O=C1N=C(Nc2ccccc2)SC1=Cc1ccc(Cl)cc1Cl

Outgoing:
266 to 268 °C
204 to 206 °C

---

- test: lipophilicity by RP-TLC with PCA
- Type: physicochemical
- test settings: RP-TLC C18, water-i-propanol 45-65%; intercept, RM extrapolated to 0% organic modifier (lipophilicity)
Label NOT MET if RM0 falls below 2; label MET in every other case.

>>> df
                               smiles_entry  assigned_category
0      C=CCNC1=NC(=O)C(=Cc2ccc(O)c(OC)c2)S1            NOT MET
1  O=C1N=C(Nc2cccc3ccccc23)SC1=Cc1cccc(Cl)c1                MET
2               O=C1CSC(Nc2cccc3ccccc23)=N1            NOT MET
3       O=C1N=C(Nc2ccccc2)SC1=Cc1cccc(Cl)c1                MET
4  O=C1N=C(Nc2ccccc2)SC1=Cc1coc2ccc(Cl)cc2c1=O                MET

Incoming: Could you tell me if the measured RM0 of C=CCNC1=NC(=O)CS1 reaches 2 or more?
Outgoing: NOT MET

Incoming: Does O=C1N=C(Nc2cccc3ccccc23)SC1=Cc1coc2ccc(Cl)cc2c1=O have a reported RM0 of at least 2?
Outgoing: MET

Incoming: Textbook exercise: given the entry C=CCNC1=NC(=O)C(=Cc2ccc(Cl)cc2Cl)S1 , state whether its RM0 is greater than or equal to 2.
Outgoing: MET

Incoming: Quick check: does C=CCNC1=NC(=O)C(=Cc2ccc(O)cc2)S1 have RM0 greater than or equal to 2?
Outgoing: NOT MET

Incoming: Has O=C1CSC(Nc2ccccc2)=N1 a recorded RM0 greater than or equal to 2?
Outgoing: NOT MET

Incoming: Record O=C1N=C(Nc2cccc3ccccc23)SC1=Cc1ccc(Cl)cc1Cl ; criterion: RM0 no lower than 2. Met?
Outgoing: MET

Incoming: Hi team, for O=C1N=C(Nc2ccccc2)SC1=Cc1csc(-c2ccccc2)n1 , is the recorded RM0 at or above 2?
Outgoing: MET

Incoming: RM0 >= 2 for O=C1N=C(Nc2ccccc2)SC1=Cc1ccc([N+](=O)[O-])cc1 ?
Outgoing: NOT MET

---

reported endpoint: melting point

Worked cases, answers included:
In [3]: df
Out[3]:
                               smiles_entry  reported_endpoint  recorded_result
0          C=CCNC1=NC(=O)C(=Cc2ccc(O)cc2)S1      melting point           338 °C
1         C=CCNC1=NC(=O)C(=Cc2cccc(Br)c2)S1      melting point           330 °C
2  C=CCNC1=NC(=O)C(=Cc2coc3ccc(Cl)cc3c2=O)S1      melting point    299 to 301 °C

Could you now look at the following compound, please?
Incoming: GET /values?readout=melting point&item= C=CCNC1=NC(=O)C(=Cc2cccc(Cl)c2)S1
Outgoing: 198 °C
